The reported numbers originate from PubChem BioAssay (NCI).

# System: RPMI-8226 leukemia
# measurement protocol: NCI tumour cell line growth inhibition, 48 h
// reported log10(TGI) for each item listed
test readout: log10(TGI) (log10 of the value in µM)

1. C[C@]12CCNC(=O)C=C1CC[C@@H]1C2CC[C@@]2(C)C1CC[C@@H]2OC(=O)COc1ccc(N(CCCl)CCCl)cc1 (stereo partly specified); 1.68
2. O=C(OC/C=C1C=C(OC(=O)c2ccccc2)/C(=N/N(C(=O)c2ccccc2)c2ccccc2)O\1)c1ccccc1; 0.86
3. O=C(NCc1ccco1)c1cccc(NC2=C(Cl)C(=O)N(Cc3ccccc3)C2=O)c1; 0.52
4. CC(C)(C)C1=CC(=C2C=Cc3ccccc3O2)C=C(C(C)(C)C)C1=O; 0.74
5. COc1ccc2[nH]c3c(C)cc([N+](=O)[O-])c(C)c3c2c1; 1.80
6. CC(CN(C)C)C(=O)c1ccccc1 (stereo unspecified); 1.30
7. C=C(C)C(=O)O[C@@H]1C/C(C)=C\[C@H](OC(C)=O)C[C@](C)(O)/C=C2/OC(=O)C(COC(C)=O)=C21; 0.24
